Assay: Cytotoxicity against human Hep3B cells
Format: functional, cell-based, Hep 3B2
Listing of entries alongside the reported IC50.
OBSERVABLE: IC50 (µM)

MOLECULAR_STRING | VALUE_UNITS | MEAS_VALUE
COc1ccc(C(=O)/C=C/c2cc(O)c(OC)cc2O)cc1O | µM | 20.9
COc1cccc2c1C(=O)c1c(O)c3c(c(O)c1C2=O)C[C@@](O)(C(=O)CO)C[C@@H]3O[C@H]1C[C@H](N)[C@H](O)[C@H](C)O1 | µM | 1.57
COC1=CC(=O)c2cc(-c3ccc(OC)c(O)c3)c3cc(O)c(OC)cc3c2C1=O | µM | 10.9
